Assay: Inhibition of Trypanosoma brucei methionyl tRNA synthetase using L-methionine as substrate preincubated for 15 mins followed by substrate addition measured after 120 mins in presence of ATP by Kinase Glo chemiluminescence assay
VALUE_TYPE: IC50

• CCNc1c(Cl)cc(Cl)cc1CN[C@H]1CCCN(c2nc3nc(Cl)ccc3[nH]2)C1 = < 50 nM
• Clc1cc(Cl)c2c(c1)C(N[C@H]1CCCN(c3nc4nc(Cl)ccc4[nH]3)C1)CCN2 (some centres undefined) = 89 nM
• COC(=O)C(NCCN(C)c1nc2nc(Cl)ccc2[nH]1)c1cc(Cl)cc(Cl)c1 (centres undefined) = 86 nM
• C=CCOc1c(Cl)cc(Cl)cc1CN[C@H]1CCCN(c2nc3nc(Cl)ccc3[nH]2)C1 = < 50 nM
• Clc1cc(Br)cc(CN[C@H]2CCCN(c3nc4nc(Cl)ccc4[nH]3)C2)c1 = < 50 nM
• CN(CCNC(CO)c1cc(Cl)cc(Cl)c1)c1nc2nc(Cl)ccc2[nH]1 (centres undefined) = 101 nM
• CN(CCN[C@@H]1CCNc2c(Cl)cc(Cl)cc21)c1nc2nc(Cl)ccc2[nH]1 = < 50 nM
• COc1c(Br)cc(Br)cc1CN[C@H]1CCCN(c2nc3nc(Cl)ccc3[nH]2)C1 = < 50 nM
• N#Cc1cc(Cl)cc(CN[C@H]2CCCN(c3nc4nc(Cl)ccc4[nH]3)C2)c1 = < 50 nM
• CC(C)Oc1c(Cl)cc(Cl)cc1CN[C@H]1CCCN(c2nc3nc(Cl)ccc3[nH]2)C1 = 305 nM
• CCCOc1c(Cl)cc(Cl)cc1CN[C@H]1CCCN(c2nc3nc(Cl)ccc3[nH]2)C1 = < 50 nM
• CCOc1c(Cl)cc(Cl)cc1CN[C@H]1CCCN(c2nc3nc(Cl)ccc3[nH]2)C1 = < 50 nM
• CCOc1c(Br)cc(Cl)cc1CN[C@H]1CCCN(c2nc3nc(Cl)ccc3[nH]2)C1 = < 50 nM
• Clc1cc(Cl)c(Cl)c(CN[C@H]2CCCN(c3nc4nc(Cl)ccc4[nH]3)C2)c1 = < 50 nM
• COc1c(Cl)cc(Cl)cc1CN[C@H]1CCCN(c2nc3nc(Cl)ccc3[nH]2)C1 = < 50 nM
• CCOc1c(Br)cc(Br)cc1CN[C@H]1CCCN(c2nc3nc(Cl)ccc3[nH]2)C1 = < 50 nM
• Oc1c(Cl)cc(Cl)cc1CN[C@H]1CCCN(c2nc3nc(Cl)ccc3[nH]2)C1 = < 50 nM
• CCOc1c(Cl)cc(Cl)cc1CNCCN(C)c1nc2nc(Cl)ccc2[nH]1 = < 50 nM
• Clc1cc(Cl)c(OC2CC2)c(CN[C@H]2CCCN(c3nc4nc(Cl)ccc4[nH]3)C2)c1 = 389 nM

###

System: Trypanosoma brucei
Assay: Antitrypanosomal activity against Trypanosoma brucei 427 bloodstream forms after 48 hrs by alamar blue assay
Type: functional
Details: Trypanosoma brucei, 427, 48 h; read-out: pEC50 (converted)
Flag rule - EC50 less than 0.06 µM flags 1.0; the remaining entries get 0.0.

* Clc1ccc2nc(N3CCC[C@H](NCc4cc(Br)cc(Br)c4)C3)[nH]c2n1 | 0.0
* Clc1cc(Cl)c2c(c1)C(N[C@H]1CCCN(c3nc4nc(Cl)ccc4[nH]3)C1)CCN2 (stereo not given in full) | 1.0
* CN(CCN[C@@H]1CCNc2c(Cl)cc(Cl)cc21)c1nc2nc(Cl)ccc2[nH]1 | 1.0
* Clc1cc(Br)cc(CN[C@H]2CCCN(c3nc4nc(Cl)ccc4[nH]3)C2)c1 | 0.0
* CCOc1c(Br)cc(Br)cc1CN[C@H]1CCCN(c2nc3nc(Cl)ccc3[nH]2)C1 | 1.0

###

Experiment: AUC in mouse at 50 mg/kg, administered through oral gavage by LC-MS analysis
Format: ADME, organism-based
Conditions: in vivo
VALUE_TYPE: AUC (µM·h)

- Clc1cc(Br)cc(CN[C@H]2CCCN(c3nc4nc(Cl)ccc4[nH]3)C2)c1: 78.1
- Clc1cc(Cl)c2c(c1)C(N[C@H]1CCCN(c3nc4nc(Cl)ccc4[nH]3)C1)CCN2 (some centres undefined): 15.8
- CCOc1c(Br)cc(Br)cc1CN[C@H]1CCCN(c2nc3nc(Cl)ccc3[nH]2)C1: 3.03
- CN(CCN[C@@H]1CCNc2c(Cl)cc(Cl)cc21)c1nc2nc(Cl)ccc2[nH]1: 2.33
